- Assay system: mu opioid receptor subtype OPRM1 (Homo sapiens)
- Protocol notes: cell-based
Endpoint name: EC50

Missing value: EC50, mu opioid receptor subtype OPRM1 (Homo sapiens), entry COc1ccc(C2CCCCN2S(=O)(=O)c2ccc(Cl)cc2)cc1Br (single isomer, unassigned) . Fill in?
> 25 µM

* * *

- Assay system: mu opioid receptor (MOR) (Homo sapiens, UniProt P35372)
- Sequence (P35372 whole entry): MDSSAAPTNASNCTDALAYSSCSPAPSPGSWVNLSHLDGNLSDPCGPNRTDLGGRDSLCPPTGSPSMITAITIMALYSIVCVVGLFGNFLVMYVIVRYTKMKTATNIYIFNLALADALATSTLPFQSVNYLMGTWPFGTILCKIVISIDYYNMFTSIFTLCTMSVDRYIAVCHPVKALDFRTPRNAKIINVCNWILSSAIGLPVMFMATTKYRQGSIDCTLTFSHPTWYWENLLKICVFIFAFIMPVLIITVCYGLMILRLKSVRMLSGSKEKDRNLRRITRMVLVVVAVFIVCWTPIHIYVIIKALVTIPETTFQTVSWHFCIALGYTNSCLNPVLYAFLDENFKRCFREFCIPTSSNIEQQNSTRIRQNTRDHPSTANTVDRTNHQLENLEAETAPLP
- Protocol notes: PathHunter β-arrestin recruitment assay, PAM mode with EC20 endomorphin-1
- Type: cell-based
- Condition context: β-arr. EC50, β-arrestin recruitment
- Description: The effects of MOR PAMs and MOR SAMs on receptor activity were assayed using the PathHunter enzyme complementation assay technology (DiscoveRx, CA). A description of the technology employed is as follows. […] In this manner an EC50 for each test compound, and percent maximal response for each test compound, were determined for both the β-arrestin and cAMP pathways. […]
Can you tell me EC50 for the items I'm about to list?

Missing value: EC50, mu opioid receptor (MOR) (Homo sapiens, UniProt P35372), entry Fc1cnc(Cl)nc1N1CCCCC1c1cccc(Cl)n1 (centres unmarked) . Fill in?
> 2.1 µM

Repeat with Fc1ccc(C2C3CCC(C3)N2Cc2cc(Cl)ccc2F)cc1Cl (centres unmarked)
0.7 to 2.1 µM

* * *

Can you tell me pEC50 for the items I'm about to list?
- Assay system: mu opioid receptor (MOR) (Homo sapiens)
- Protocol notes: Hit Hunter cAMP signaling assay (adenylyl cyclase inhibition), PAM mode with EC20 endomorphin-1
- Type: cell-based
- Condition context: adenylyl cyclase inhibition; read-out: cAMP EC50
pEC50: −log10 of the molar value.

I am curious: what pEC50 value has been reported for O=S(=O)(Cc1ccccc1Cl)N1C2CCC(C2)C1c1ccc(F)c(Br)c1 (stereo not shown) ?
< 5.68

Repeat with O=S(=O)(Cc1ccccc1Cl)N1CCCCC1c1cccc(C(F)(F)F)c1 (stereo not shown)
< 5.68

Repeat with COc1ccc(C2CC(C(F)(F)F)CN2S(=O)(=O)c2ccc(Cl)cc2)cc1Br (single isomer, unassigned) [Compound 120]
< 5.68

Repeat with COc1ccc(C2N(S(=O)(=O)c3ccc(Cl)cc3)CCC2(F)C(F)(F)F)cc1Br (mixture of isomers)
5.68 to 6.15

Repeat with Cc1nccc(C2CCCCN2c2nc(Cl)ccc2F)n1 (stereo not shown)
> 6.15

Repeat with Fc1cc(C2COCCN2Cc2cc(Cl)ccc2F)cc(C(F)(F)F)c1 (racemic)
< 5.68

Repeat with O=S(=O)(c1ccc(Cl)cc1)N1CCCCC1c1cc(F)ccn1 (racemic)
< 5.68

Repeat with COc1ccc(C2CCCCN2S(=O)(=O)c2ccc(Cl)cc2)cc1Cl (racemic)
5.68 to 6.15

Repeat with CCC1CCCN(c2nc(Cl)ncc2F)C1c1ccc(OC)c(Br)c1 (stereo not shown) [compound 248]
< 5.68

Repeat with Fc1ccc(C2COCCN2c2nc(Cl)ncc2F)cc1Cl (racemic)
5.68 to 6.15

Repeat with COc1ccc(C2C(C)CCN2S(=O)(=O)c2ccc(Cl)cc2)cc1Br (mixture of isomers)
5.68 to 6.15

Repeat with COc1ccc(C2CC(C(F)(F)F)CN2S(=O)(=O)c2ccc(Cl)cc2)cc1Br (mixture of isomers) [Compound 86]
< 5.68

Repeat with O=S(=O)(c1ccc(Cl)cc1)N1CCOCC1c1ccc(F)c(Br)c1 (racemic)
< 5.68

Repeat with Fc1cnc(Cl)nc1N1CCSCC1c1cccc(C(F)(F)F)c1 (stereo not shown)
< 5.68

Repeat with Fc1ccc(C2CC(C(F)(F)F)CN2c2nc(Cl)ncc2F)cc1Cl (stereo not shown)
< 5.68

Repeat with [O-][S+]1CCN(c2nc(Cl)ncc2F)C(c2cc(F)cc(C(F)(F)F)c2)C1 (mixture of isomers)
< 5.68

* * *

- Assay system: UniProt P35372
- Protocol notes: PathHunter β-arrestin recruitment assay, PAM mode with EC20 endomorphin-1
- Type: cell-based
- Condition context: β-arrestin recruitment; read-out: β-arr. EC50
pEC50: −log10 of the molar value.
Endpoint name: pEC50

I am curious: what pEC50 value has been reported for Fc1ccc(C2CCCCN2c2nc(Cl)ncc2F)cc1Cl (stereo not drawn) [compound 121] ?
> 6.15

Repeat with Fc1ccc(N2CCCCC2c2ccc(F)c(Cl)c2)cc1 (stereo not drawn)
< 5.68

Repeat with Fc1cnc(Cl)nc1N1CCCCC1c1cccc(Cl)c1F (stereo not drawn)
> 6.15

Repeat with O=S(=O)(c1ccc(Cl)cc1)N1CCCCC1c1cccc(Cl)c1 (racemic)
< 5.68

Repeat with [2H]C1(c2cccc(C(F)(F)F)c2)C(F)CCCN1Cc1cccc(Cl)c1 (stereo not drawn)
5.68 to 6.15

Repeat with Fc1cnccc1C1CCCCN1c1nc(Cl)ncc1F (stereo not drawn)
> 6.15

Repeat with O=S(=O)(Cc1ccc(Cl)c(Cl)c1)N1C2CCC(C2)C1c1ccc(F)c(Br)c1 (stereo not drawn)
< 5.68

Repeat with CC1CCN(S(=O)(=O)c2ccc(Cl)cc2)C1c1ccc(F)c(F)c1F (mixture of isomers)
< 5.68

Repeat with Fc1cc(C2C3CCC(C3)N2Cc2cc(Cl)ccc2F)cc(C(F)(F)F)c1 (stereo not drawn)
> 6.15

* * *

Can you tell me EC50 for the items I'm about to list?
- Assay system: mu opioid receptor (MOR) (Homo sapiens, UniProt P35372)
- Protocol notes: Hit Hunter cAMP signaling assay (adenylyl cyclase inhibition), PAM mode with EC20 endomorphin-1
- Assay type: cell-based
- Condition context: cAMP EC50, adenylyl cyclase inhibition

I am curious: what EC50 value has been reported for Fc1cnc(Cl)nc1N1CCCCC1c1cccc2cnnn12 (stereo not drawn) [compound 333] ?
< 700 nM

Repeat with Fc1cccc(C2CCCCN2Cc2cc(Cl)ccc2F)n1 (stereo not drawn) [compound 171]
700 to 2100 nM

Repeat with Fc1cnc(Cl)nc1N1CCCCC1c1ccc2ncsc2c1 (stereo not drawn) [compound 341]
< 700 nM

Repeat with C#Cc1cccc(N2CCCCC2c2cccc(C(F)(F)F)n2)c1 (stereo not drawn) [compound 451]
> 2100 nM

Repeat with Cc1cnc(Cl)nc1N1CCCCC1c1cccc(C(F)(F)F)c1 (stereo not drawn) [compound 265]
> 2100 nM

Repeat with OC1CCN(c2nc(Cl)ncc2F)C(c2cc(F)cc(C(F)(F)F)c2)C1 (stereo not drawn) [compound 201]
> 2100 nM

Repeat with Fc1cnc(Cl)nc1N1CCCCC1c1c(C(F)(F)F)ccc(F)c1Br (stereo not drawn) [compound 354]
< 700 nM

Repeat with Fc1ccc(Cl)cc1CN1CCCCC1c1ccc(Cl)c(C(F)(F)F)c1 (stereo not drawn) [compound 150]
< 700 nM

Repeat with Fc1cnc(Cl)nc1N1CCCCC1c1ccc2cnnn2c1 (stereo not drawn) [compound 291]
> 2100 nM

Repeat with Fc1cnc(Cl)nc1N1CCCCC1c1cccc(Cl)c1 (stereo not drawn) [compound 285]
> 2100 nM

Repeat with FC(F)(F)c1cccc(C2CCCCN2c2ccnc(Cl)c2)c1 (stereo not drawn) [compound 359]
< 700 nM

Repeat with Cc1cnc(N2CCCCC2c2cccc(F)n2)nc1Cl (stereo not drawn) [compound 268]
> 2100 nM

Repeat with COc1cccc(N2CCCCC2c2ccc(F)c(Cl)c2)c1 (stereo not drawn) [compound 465]
> 2100 nM

Repeat with Cc1nccc(N2CCCCC2c2ccc(F)c(Cl)c2)n1 (stereo not drawn) [compound 480]
> 2100 nM

Repeat with FC(F)(F)c1cccc(C2CCCCN2Cc2ccc(Cl)cc2)n1 (stereo not drawn) [compound 146]
> 2100 nM

Repeat with Cc1nccc(C2CCCCN2c2nc(Cl)ncc2F)n1 (stereo not drawn) [compound 377]
< 700 nM

Repeat with Fc1ccnc(C2CCCCN2c2nc(Cl)ncc2F)c1 (stereo not drawn) [compound 412]
< 700 nM

Repeat with Fc1ccc(C2CCCCN2c2nc(Cl)ncc2F)cc1Br (stereo not drawn) [compound 124]
< 700 nM

Repeat with Fc1c(Cl)cccc1CN1CCCCC1c1cccc(C(F)(F)F)n1 (stereo not drawn) [compound 172]
< 700 nM

Repeat with Fc1cccc(C2CCCCN2c2nccc(Cl)n2)n1 (stereo not drawn) [compound 260]
> 2100 nM

Repeat with [2H]C1(c2cccc(C(F)(F)F)c2)C(F)CCCN1Cc1cccc(Br)c1 (stereo not drawn) [compound 206]
700 to 2100 nM

Repeat with Cc1cncc(C2CCCCN2c2nc(Cl)ncc2F)c1 (stereo not drawn) [compound 330]
< 700 nM

Repeat with Fc1cnc(Cl)nc1C1CCCCN1c1nc(Cl)ncc1F (stereo not drawn) [compound 357]
< 700 nM

Repeat with COc1ccc(C2CCCCN2c2ccc(Br)cn2)cc1Br (stereo not drawn) [compound 231]
> 2100 nM

Repeat with COc1ccc(C2CCCCN2S(=O)(=O)c2cccnc2Cl)cc1Br (stereo not drawn) [compound 17]
> 2100 nM

Repeat with OC1CCN(c2nc(Cl)ncc2F)C(c2cccc(C(F)(F)F)c2)C1 (stereo not drawn) [compound 202]
> 2100 nM

Repeat with FC(F)(F)c1cccc(C2CCCCN2Cc2cc(Cl)cc(Cl)c2)n1 (stereo not drawn) [compound 159]
700 to 2100 nM

Repeat with [2H]C1(c2cccc(C(F)(F)F)c2)C(F)CCCN1c1nc(Cl)ncc1F (stereo not drawn) [compound 207]
700 to 2100 nM

Repeat with Cn1cnc2cc(C(F)(F)F)cc(C3CCCCN3c3nc(Cl)ncc3F)c21 (stereo not drawn) [compound 300]
> 2100 nM

Repeat with Fc1cnc(Cl)nc1N1CCCCC1c1ccc2ncccc2c1 (stereo not drawn) [compound 326]
< 700 nM

Repeat with Fc1cnc(Cl)nc1N1CCCCC1c1ccc(C(F)(F)F)nc1 (stereo not drawn) [compound 413]
< 700 nM

Repeat with COc1ccc(C2CCCCN2c2ncc(C)c(Cl)n2)cc1Br (stereo not drawn) [compound 236]
> 2100 nM

Repeat with CN(C)c1cccc(C2CCCCN2c2nc(N(C)C)ncc2F)n1 (stereo not drawn) [compound 243]
> 2100 nM

Repeat with Fc1cnc(Cl)nc1N1CCCCC1c1ccc(OC(F)(F)F)c(Br)c1 (stereo not drawn) [compound 126]
< 700 nM

Repeat with Fc1ccc(Cl)cc1CN1CCCCC1c1cccc(OC(F)(F)F)n1 (stereo not drawn) [compound 169]
< 700 nM

Repeat with Fc1ccc(C2CCCCN2c2nc(Cl)ncc2F)nc1 (stereo not drawn) [compound 372]
< 700 nM

Repeat with Fc1cccc(C2CCCCN2c2cc(Cl)ncc2F)n1 (stereo not drawn) [compound 262]
> 2100 nM

Repeat with Oc1nccc(N2CCCCC2c2cccc(C(F)(F)F)c2)n1 (stereo not drawn) [compound 401]
< 700 nM

Repeat with COc1ccc(C2CCCCN2c2nc(Cl)ncc2F)cc1OC (stereo not drawn) [compound 294]
> 2100 nM
